# subject-of-test: FFAR (R10; GPR40) (Homo sapiens, UniProt O14842)
# Construct: expressed in transfected cells; host or cells: HFF11 reporter cells (HeLa-based), line HFF11.pR10
# Sequence (O14842 whole entry): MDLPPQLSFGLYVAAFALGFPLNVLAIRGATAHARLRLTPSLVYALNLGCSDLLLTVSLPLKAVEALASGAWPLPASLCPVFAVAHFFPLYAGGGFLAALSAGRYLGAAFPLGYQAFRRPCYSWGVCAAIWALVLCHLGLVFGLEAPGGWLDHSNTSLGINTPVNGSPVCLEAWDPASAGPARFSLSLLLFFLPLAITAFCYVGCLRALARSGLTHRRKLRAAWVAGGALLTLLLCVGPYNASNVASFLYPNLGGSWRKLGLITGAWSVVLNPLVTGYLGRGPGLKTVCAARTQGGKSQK
# protocol-text: HFF11 reporter cell assay, HFF11.pR10 cells expressing FFAR
# Format: cell-based
# conditions-used: concentration response curves, HFF11 reporter cells expressing FFAR, FIG. 3; read-out: EC50
# Procedure: Construction of the HFF11 reporter cell lines (successor of the previously described HeLa based cell line, HF1) expressing the orphan GPCRs studied was performed as earlier reported. (Co-pending U.S. application Ser. No. 09/946,334 filed Sep. 21, 2001; Kotarsky et al. 2001.) They contain the reporter plasmid, pcFUS3, where the original promoter region has been extended by 6 NFkB and 6 STAT elements. […]
readout-label: EC50

Ask: GET /values?readout=EC50&item= `CCCCCCCCCC(=O)O`
Reply: 12.6 µM
